- measured_on: CD137 expressed on cells (CHO cells expressing CD137); Jurkat cells of the Promega CD137 luciferase reporter … (UniProt Q07011 24-255, limits assumed)
- Sequence (Q07011 24-255 limits assumed): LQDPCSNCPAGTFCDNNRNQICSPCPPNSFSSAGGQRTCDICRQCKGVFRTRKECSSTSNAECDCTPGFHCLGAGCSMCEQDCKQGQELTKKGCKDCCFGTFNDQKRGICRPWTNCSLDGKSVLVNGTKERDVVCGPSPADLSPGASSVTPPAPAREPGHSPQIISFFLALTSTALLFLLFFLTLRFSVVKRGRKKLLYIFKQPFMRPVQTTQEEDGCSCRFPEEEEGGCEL
- test: cell-based or functional assay
Starred links: 1 amine or outer side, 2 acyl side, 3 side chain; linkers in the order of their positions; H or OH if unused. Positions of bridges follow the written chain, without caps; N, C: chain ends. Non-standard residues stand in square brackets, D forms with d. Chains are numbered I, II in the order given. No end group written: not given here. *: point of attachment. TATA = O=C(CC[*:1])N1CN(C(=O)CC[*:2])CN(C(=O)CC[*:3])C1; 1Nal = N[C@@H](Cc1cccc2ccccc12)C(=O)O; Hyp = O=C(O)[C@@H]1C[C@@H](O)CN1; hArg = N=C(N)NCCCC[C@H](N)C(=O)O; tBuAla = CC(C)(C)C[C@H](N)C(=O)O; Nle = CCCC[C@H](N)C(=O)O; Pent4ynoyl = C#CCCC(=O)*; Dap = NC[C@H](N)C(=O)O; βAla = NCCC(=O)O; Sar = CNCC(=O)O
Decide using EC50 (nM), CD137 reporter assay, co-culture with H1376 (Nectin4) alone. Strictly below 1 nM: Fulfilled. Equal to or above 1 nM: Not fulfilled.

INPUT: EC50 (nM), CD137 reporter assay, co-culture with H1376 (Nectin4) under 1 nM? Item: heterotandem bicyclic peptide complex BCY10569 (linker I:11-I:15-I:25, II:1-II:8-II:15 via TATA; not fully specified (C-terminus, bridges); numbers in words are those of the source; also: chains joined by PEG12 linker, triazole from PYA, linker on chain 2 D-Lys side chain) peptide 1: {Pent4ynoyl-βAla}-[Sar][Sar][Sar][Sar][Sar][Sar][Sar][Sar][Sar][Sar]CP[1Nal][dD]CM[hArg]DWSTP[Hyp]WC peptide 2: Ac-C[tBuAla]PE[dK]PYCFADPY[Nle]CA
OUTPUT: Not fulfilled

INPUT: EC50 (nM), CD137 reporter assay, co-culture with H1376 (Nectin4) under 1 nM? Item: heterotandem bicyclic peptide complex BCY10578 (linker I:11-I:15-I:25, II:1-II:8-II:15 via TATA; not fully specified (C-terminus); numbers in words are those of the source; also: linker to a chain's N/C-terminus via CH2) peptide 1: {Pent4ynoyl-βAla}-[Sar][Sar][Sar][Sar][Sar][Sar][Sar][Sar][Sar][Sar]CP[1Nal][dD]CM[hArg]DWSTP[Hyp]WC peptide 2: Ac-C[tBuAla]PE[dA]PYCFADPY[Nle]C[Dap]
OUTPUT: Fulfilled

INPUT: EC50 (nM), CD137 reporter assay, co-culture with H1376 (Nectin4) under 1 nM? Item: heterotandem bicyclic peptide complex BCY10567 (linker I:11-I:15-I:25, II:1-II:8-II:15 via TATA; not fully specified (C-terminus, bridges); numbers in words are those of the source; also: chains joined by PEG12 linker, triazole from PYA, linker on chain 2 Lys4 side chain) peptide 1: {Pent4ynoyl-βAla}-[Sar][Sar][Sar][Sar][Sar][Sar][Sar][Sar][Sar][Sar]CP[1Nal][dD]CM[hArg]DWSTP[Hyp]WC peptide 2: Ac-C[tBuAla]PK[dA]PYCFADPY[Nle]CA
OUTPUT: Not fulfilled

INPUT: EC50 (nM), CD137 reporter assay, co-culture with H1376 (Nectin4) under 1 nM? Item: heterotandem bicyclic peptide complex BCY10000 (linker I:11-I:15-I:25, II:1-II:8-II:15 via TATA; not fully specified (C-terminus); numbers in words are those of the source; also: linker to a chain's N/C-terminus via PEG12) peptide 1: {Pent4ynoyl-βAla}-[Sar][Sar][Sar][Sar][Sar][Sar][Sar][Sar][Sar][Sar]CP[1Nal][dD]CM[hArg]DWSTP[Hyp]WC peptide 2: Ac-C[tBuAla]PE[dA]PYCFADPY[Nle]C[Dap]
OUTPUT: Fulfilled

INPUT: EC50 (nM), CD137 reporter assay, co-culture with H1376 (Nectin4) under 1 nM? Item: heterotandem bicyclic peptide complex BCY8854 (BCY7732: N-terminal acetyl; Nle12; C-terminal Dap (diaminopropionic acid) bearing the linker; Ci, Cii, Ciii on TATA scaffold; BCY8846: N-terminal [PYA]-[B-Ala]-[Sar10]- (linker on PYA); 1Nal2, dD3, HArg5, HyP11; Ci, Cii, Ciii on TATA scaffold) peptide 1: CPXDCMXDWSTPXWC peptide 2: ACIEEGQYCFADPYXC
OUTPUT: Not fulfilled

INPUT: EC50 (nM), CD137 reporter assay, co-culture with H1376 (Nectin4) under 1 nM? Item: heterotandem bicyclic peptide complex BCY9759 (BCY7732: N-terminal acetyl; Nle12; C-terminal Dap (diaminopropionic acid) bearing the linker; Ci, Cii, Ciii on TATA scaffold; BCY8116: linker on N-terminus; 1Nal2, dD3, HArg5, HyP11; Ci, Cii, Ciii on TATA scaffold) peptide 1: CPXDCMXDWSTPXWC peptide 2: ACIEEGQYCFADPYXC
OUTPUT: Not fulfilled

meta.source: patent US20190307836A1
